Attribution: patent US20250367237A1

Recorded fold over background MFI signal, one value per entry.
Biological target: T1, human c-Kit, GNNK+ isoform, expressed on SEM cells (human, UniProt P10721 26-976)
T1 construct: also called SEM (GNNK+); CD117
T1 sequence (P10721 26-976 limits assumed): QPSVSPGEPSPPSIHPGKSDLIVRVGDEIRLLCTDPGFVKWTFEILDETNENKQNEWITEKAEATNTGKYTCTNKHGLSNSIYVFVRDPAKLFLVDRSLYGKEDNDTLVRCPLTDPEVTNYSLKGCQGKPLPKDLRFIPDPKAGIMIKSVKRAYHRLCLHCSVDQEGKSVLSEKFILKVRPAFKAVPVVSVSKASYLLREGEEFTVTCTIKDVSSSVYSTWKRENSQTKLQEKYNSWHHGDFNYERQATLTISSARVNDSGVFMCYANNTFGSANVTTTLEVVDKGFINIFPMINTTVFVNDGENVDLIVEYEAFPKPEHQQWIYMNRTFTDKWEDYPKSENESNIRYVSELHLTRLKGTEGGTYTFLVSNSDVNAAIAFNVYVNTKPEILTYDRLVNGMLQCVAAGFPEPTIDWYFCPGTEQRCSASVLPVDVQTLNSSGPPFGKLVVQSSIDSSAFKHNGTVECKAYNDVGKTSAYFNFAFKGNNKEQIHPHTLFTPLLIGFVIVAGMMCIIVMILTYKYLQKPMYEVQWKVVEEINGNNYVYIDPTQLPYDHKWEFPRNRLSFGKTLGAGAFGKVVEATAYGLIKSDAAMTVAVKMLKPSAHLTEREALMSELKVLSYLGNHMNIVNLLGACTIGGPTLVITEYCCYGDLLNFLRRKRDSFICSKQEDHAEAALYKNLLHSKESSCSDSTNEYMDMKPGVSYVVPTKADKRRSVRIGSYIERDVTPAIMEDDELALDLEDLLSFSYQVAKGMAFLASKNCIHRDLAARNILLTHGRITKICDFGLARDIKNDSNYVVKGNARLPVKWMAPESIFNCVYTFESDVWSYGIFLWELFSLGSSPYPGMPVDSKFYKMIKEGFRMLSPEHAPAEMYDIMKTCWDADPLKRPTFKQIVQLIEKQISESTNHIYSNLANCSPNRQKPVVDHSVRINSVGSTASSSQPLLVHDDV
Assay: flow cytometry, antibody supernatant on SEM cells expressing human c-Kit GNNK+, PE secondary
The answer is to be given in fold over background; state only the numeric part.

Some binders with recorded fold over background MFI signal:
anti-c-Kit single domain antibody Clone ID # 407922 (VHH, also called F06 family) VHH: EVQLLESGGGLVQPGGSLRLSCAASGLTISSYAMSWVRQAPGKGLEWVSAISTGGSRTYYADSVKGRFTISRDNSKNTLYLQMNSLRAEDTAVYFCATGYDSSGHYYGGFDYRGQGTLVTVSS : 829
anti-c-Kit single domain antibody Clone ID # 408366 (VHH, also called F06 family) VHH: EVQLLESGGGLVQPGGSLRLSCAASGLTISTYAMSWVRQAPGKGLEWVSAISTGGSSTYYADSVKGRFTISRDNSKNTLYLQMNSLRAEDTAVYYCATGYDSSGHYYGGFDYRGQGTLVTVSS : 945
anti-c-Kit single domain antibody Clone ID # 407921 (VHH, also called F06 family) VHH: EVQLLESGGGLVQPGGSLRLSCAASGFTFDSYAMSWVRQAPGKGLEWVSAISVRGGSTYYADSVKGRFTISRDNSKNTLYLQMNSLRAEDTAVYSCATGYDPSGHYYGGFDYRGQGTLVTVSS : 814

Quick note, fold over background MFI signal for anti-c-Kit single domain antibody Clone ID # 408389 (VHH, also called F06 family) VHH: EVQLLESGGGLVQPGGSLRLSCAASGFTFDSYAMSWVRQAPGEGLEWVSAISTGGGSTYYADSVKGRFTISRDNSKNMLFLQMNSLRAEDTAVYSCATGYDSSGYYYGGFDYRGQGTLVTVSS landed at 934

Notebook: anti-c-Kit single domain antibody Clone ID # 408198 (VHH, also called F18 family) VHH: QLQLQESGPGLVKPSETLSLTCTVSGGSISSSSYYWGWIRQPPGKGLEWIGSIDYNGGTYNNPSLKSRVTISVDTSKNQFSLKLSYVTAADTAVYYCARQNPRRYASGASDYRGQGTLVTVSS , fold over background MFI signal read as 388
